Provenance of the data: ChEMBL document CHEMBL1212784

# Tested on: Escherichia coli
# Experimental Details: Antimicrobial activity against Escherichia coli O14 using in brain heart infusion medium(dil) after 2 hrs at 25 ug/ml
# Type: functional
Measured Attribute: Activity

The cases that follow already have their Activity on record.
Ask | Give Escherichia coli Activity for H-KCFQWQRNMRKVR-OH
Reply | >=99%

Ask | Give Escherichia coli Activity for H-ATKCFQWQRNMRKVR-OH
Reply | >=99%

Ask | Give Escherichia coli Activity for H-TKCFQWQRNMRKVR-OH
Reply | >=99%

Ask | Give Escherichia coli Activity for H-QPEATKCFQWQRNMRKVR-OH
Reply | <99%

Further cases:
Ask | Give Escherichia coli Activity for H-QWQRNMRKVR-OH
Reply | <99%

Ask | Give Escherichia coli Activity for H-FQWQRNMRKVR-OH
Reply | <99%

---

MIC99 values for the substances below.
# Experimental Details: Antimicrobial activity against Escherichia coli O6 K5 incubation in bactopeptone
# Type: functional

Ask | Consider the substance H-CFQWQRNMAKVR-OH and give its measured MIC99.
Reply | > 100 µg/mL

Ask | Consider the substance H-CFQWQRNMRKVA-OH and give its measured MIC99.
Reply | > 100 µg/mL

// moving on: another record for MIC99
Ask | Consider the substance H-CFQAQRNMRKVR-OH and give its measured MIC99.
Reply | > 100 µg/mL

---

MIC99 values for the substances below.
# Experimental Details: Antimicrobial activity against Escherichia coli O6 K5 incubated in diluted brain heart infusion medium
# Assay type: functional
Your answer is read as µg/mL, so omit the unit and give the number.

The cases that follow already have their MIC99 on record.
Ask | Consider the substance H-CFQWQRNMRKAR-OH and give its measured MIC99.
Reply | 12

Ask | Consider the substance H-CFQWARNMRKVR-OH and give its measured MIC99.
Reply | 12

Further cases:
Ask | Consider the substance H-CFQWQRNMRKVA-OH and give its measured MIC99.
Reply | 12

Ask | Consider the substance H-CFQWQRNARKVR-OH and give its measured MIC99.
Reply | 12

Ask | Consider the substance H-CFQWQRAMRKVR-OH and give its measured MIC99.
Reply | 6

---

# Test system: Escherichia coli
# Experimental Details: Antimicrobial activity against Escherichia coli O14 using in brain heart infusion medium(dil) after 2 hrs at 25 ug/ml
# Format: functional
Measured Attribute: Activity

Ask | Consider the substance H-PEATKCFQWQRNMRKVR-OH and give its measured Activity.
Reply | <99%

Ask | Consider the substance H-EATKCFQWQRNMRKVR-OH and give its measured Activity.
Reply | <99%

Ask | Consider the substance H-CFQWQRNMRKVR-OH and give its measured Activity.
Reply | >=99%
